This listing pairs substances with measured Activity of a4b2 with peptide (percentage of the reference compound).
# TARGET OR SYSTEM: α4β2 (Homo sapiens, UniProt P17787+P43681)
# Construct: host or cells: HEK293 or CHO
# Sequence (P43681 29-627): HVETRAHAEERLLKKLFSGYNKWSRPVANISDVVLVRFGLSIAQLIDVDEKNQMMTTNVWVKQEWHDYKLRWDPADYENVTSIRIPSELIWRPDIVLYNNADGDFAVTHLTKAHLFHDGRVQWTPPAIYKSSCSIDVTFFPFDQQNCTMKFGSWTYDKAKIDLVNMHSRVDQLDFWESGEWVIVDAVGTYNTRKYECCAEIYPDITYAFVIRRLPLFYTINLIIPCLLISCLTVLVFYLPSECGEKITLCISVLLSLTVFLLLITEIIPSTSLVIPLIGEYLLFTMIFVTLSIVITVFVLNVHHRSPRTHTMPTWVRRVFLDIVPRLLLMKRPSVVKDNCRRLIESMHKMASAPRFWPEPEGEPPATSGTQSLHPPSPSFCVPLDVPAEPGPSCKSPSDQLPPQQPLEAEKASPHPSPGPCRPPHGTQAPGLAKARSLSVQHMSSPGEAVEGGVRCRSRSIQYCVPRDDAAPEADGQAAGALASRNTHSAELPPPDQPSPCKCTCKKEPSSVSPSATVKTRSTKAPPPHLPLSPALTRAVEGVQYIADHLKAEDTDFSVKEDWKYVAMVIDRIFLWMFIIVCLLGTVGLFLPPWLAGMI
# Sequence (P17787 26-502): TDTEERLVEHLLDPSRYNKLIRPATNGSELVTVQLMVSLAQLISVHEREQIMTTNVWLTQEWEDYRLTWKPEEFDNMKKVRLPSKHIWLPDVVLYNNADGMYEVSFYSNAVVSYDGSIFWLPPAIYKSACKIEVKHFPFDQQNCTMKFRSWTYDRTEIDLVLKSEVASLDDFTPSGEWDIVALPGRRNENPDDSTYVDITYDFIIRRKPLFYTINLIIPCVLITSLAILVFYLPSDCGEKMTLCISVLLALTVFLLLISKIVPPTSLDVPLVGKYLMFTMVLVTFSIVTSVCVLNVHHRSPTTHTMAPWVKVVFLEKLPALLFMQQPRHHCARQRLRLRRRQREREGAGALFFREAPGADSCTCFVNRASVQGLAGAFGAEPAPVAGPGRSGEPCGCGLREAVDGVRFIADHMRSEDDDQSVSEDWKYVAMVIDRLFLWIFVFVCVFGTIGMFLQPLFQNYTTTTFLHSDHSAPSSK
# EXPERIMENT NOTES: Ion channel panel (IonWorks Barracuda): α4β2
# Type: cell-based
# CONDITION INFO: peptide at 20 μM; 100% = no change, <100% = inhibition
PROPERTY MEASURED: Activity of a4b2 with peptide (percentage of the reference compound) (%)

[
  {
    "SUBSTANCE": "34 (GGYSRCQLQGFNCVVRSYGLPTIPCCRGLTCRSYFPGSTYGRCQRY) [compound 34]",
    "RECORDED RESULT": 51
  },
  {
    "SUBSTANCE": "6 (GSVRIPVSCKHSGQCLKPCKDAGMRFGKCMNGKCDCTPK) [compound 6]",
    "RECORDED RESULT": 96
  },
  {
    "SUBSTANCE": "25 (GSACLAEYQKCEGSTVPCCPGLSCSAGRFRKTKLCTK) [compound 25]",
    "RECORDED RESULT": 75
  },
  {
    "SUBSTANCE": "38 (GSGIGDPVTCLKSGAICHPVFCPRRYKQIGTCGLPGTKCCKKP) [compound 38]",
    "RECORDED RESULT": 88
  },
  {
    "SUBSTANCE": "3 (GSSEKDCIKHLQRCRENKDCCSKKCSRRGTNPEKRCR) [compound 3]",
    "RECORDED RESULT": 91
  },
  {
    "SUBSTANCE": "12 (GSNFKVEGACSKPCRKYCIDKGARNGKCINGRCHCYY) [compound 12]",
    "RECORDED RESULT": 84
  },
  {
    "SUBSTANCE": "24 (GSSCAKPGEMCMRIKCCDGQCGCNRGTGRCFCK) [compound 24]",
    "RECORDED RESULT": 88
  },
  {
    "SUBSTANCE": "27 (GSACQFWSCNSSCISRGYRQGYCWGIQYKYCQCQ) [compound 27]",
    "RECORDED RESULT": 82
  },
  {
    "SUBSTANCE": "14 (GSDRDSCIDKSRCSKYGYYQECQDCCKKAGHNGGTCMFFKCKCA) [compound 14]",
    "RECORDED RESULT": 81
  },
  {
    "SUBSTANCE": "18 (GSNCAGYMRECKEKLCCSGYVCSSRWKWCVLPAPWRR) [compound 18]",
    "RECORDED RESULT": 92
  },
  {
    "SUBSTANCE": "39 (GSGVPTDVKCRGSPQCIQPCKDAGMRFGKCMNGKCHCTPK) [compound 39]",
    "RECORDED RESULT": 91
  },
  {
    "SUBSTANCE": "22 (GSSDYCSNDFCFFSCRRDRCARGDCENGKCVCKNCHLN) [compound 22]",
    "RECORDED RESULT": 83
  },
  {
    "SUBSTANCE": "11 (GSGDCLPHLKRCKENNDCCSKKCKRRGANPEKRCR) [compound 11]",
    "RECORDED RESULT": 88
  },
  {
    "SUBSTANCE": "10 (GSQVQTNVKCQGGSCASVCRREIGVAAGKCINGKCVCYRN) [compound 10]",
    "RECORDED RESULT": 94
  },
  {
    "SUBSTANCE": "36 (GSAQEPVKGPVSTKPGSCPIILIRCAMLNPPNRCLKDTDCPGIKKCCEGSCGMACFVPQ) [compound 36]",
    "RECORDED RESULT": 57
  },
  {
    "SUBSTANCE": "9 (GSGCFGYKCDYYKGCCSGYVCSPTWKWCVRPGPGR) [compound 9]",
    "RECORDED RESULT": 81
  },
  {
    "SUBSTANCE": "13 (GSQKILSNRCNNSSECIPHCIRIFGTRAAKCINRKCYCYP) [compound 13]",
    "RECORDED RESULT": 80
  },
  {
    "SUBSTANCE": "4 (GSSCAKPRENCNRMNILCCRGECVCPTFGDCFCYGD) [compound 4]",
    "RECORDED RESULT": 81
  },
  {
    "SUBSTANCE": "2 (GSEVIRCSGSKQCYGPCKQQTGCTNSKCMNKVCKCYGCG) [compound 2]",
    "RECORDED RESULT": 87
  },
  {
    "SUBSTANCE": "16 (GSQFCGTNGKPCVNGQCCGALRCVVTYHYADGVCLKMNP) [compound 16]",
    "RECORDED RESULT": 72
  },
  {
    "SUBSTANCE": "5 (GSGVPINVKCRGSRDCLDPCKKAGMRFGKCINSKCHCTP) [compound 5]",
    "RECORDED RESULT": 93
  },
  {
    "SUBSTANCE": "20 (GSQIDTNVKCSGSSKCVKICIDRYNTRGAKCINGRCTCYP) [compound 20]",
    "RECORDED RESULT": 92
  },
  {
    "SUBSTANCE": "19 (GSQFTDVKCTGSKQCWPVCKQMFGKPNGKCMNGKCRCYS) [compound 19]",
    "RECORDED RESULT": 93
  },
  {
    "SUBSTANCE": "15 (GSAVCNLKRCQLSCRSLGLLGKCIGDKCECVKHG) [compound 15]",
    "RECORDED RESULT": 95
  },
  {
    "SUBSTANCE": "32 (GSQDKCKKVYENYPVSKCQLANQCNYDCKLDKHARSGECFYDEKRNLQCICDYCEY) [compound 32]",
    "RECORDED RESULT": 86
  },
  {
    "SUBSTANCE": "17 (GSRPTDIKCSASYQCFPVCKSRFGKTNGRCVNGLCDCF) [compound 17]",
    "RECORDED RESULT": 78
  },
  {
    "SUBSTANCE": "29 (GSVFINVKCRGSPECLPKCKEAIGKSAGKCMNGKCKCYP) [compound 29]",
    "RECORDED RESULT": 101
  },
  {
    "SUBSTANCE": "26 (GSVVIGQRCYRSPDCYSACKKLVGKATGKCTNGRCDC) [compound 26]",
    "RECORDED RESULT": 89
  },
  {
    "SUBSTANCE": "23 (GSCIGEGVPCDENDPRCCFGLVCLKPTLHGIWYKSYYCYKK) [compound 23]",
    "RECORDED RESULT": 79
  },
  {
    "SUBSTANCE": "21 (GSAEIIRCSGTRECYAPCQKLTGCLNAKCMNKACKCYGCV) [compound 21]",
    "RECORDED RESULT": 85
  },
  {
    "SUBSTANCE": "30 (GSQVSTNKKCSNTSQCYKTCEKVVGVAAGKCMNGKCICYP) [compound 30]",
    "RECORDED RESULT": 92
  }
]
